- methodDescription: Serum stability in RPMI1640 medium containing 10% fetal bovine serum
- Format: in vitro ADME
- settings: bovine

molecule: CC(=O)O[C@H]1C(=O)[C@@]2(C)[C@H]([C@H](OC(=O)c3ccccc3)[C@]3(O)C[C@H](OC(=O)[C@H](O)[C@@H](NC(=O)c4ccccc4)c4ccccc4)C(C)=C1C3(C)C)[C@]1(OC(C)=O)CO[C@@H]1C[C@@H]2O
half-life / h: 11

---

- Tested on: tubulin
- methodDescription: Fluorescence-based microtubule polymerization assay (MPA)
- Format: biochemical
- settings: mean percentage of paclitaxel or vinblastine activity; 0.75-10 micromolar
quantityMeasured: Ave. MPA Act

compound: CC[C@]1(O)C[C@@H]2CN(CCc3c([nH]c4ccccc34)[C@@](C(=O)OC)(c3cc4c(cc3OC)N(C)[C@H]3[C@@](O)(C(=O)NCCCCCCCCCCCCN)[C@H](O)[C@]5(CC)C=CCN6CC[C@]43[C@@H]65)C2)C1
testedTarget: tubulin
recordedMeasurement: B (B=60-100)
--
compound: CC[C@]1(O)CC2CN(CCc3c([nH]c4ccccc34)[C@@](C(=O)OC)(c3cc4c(cc3OC)N(C)[C@H]3C(O)(C(=O)NCCOCCOCCOCCN)[C@H](O)[C@]5(CC)C=CCN6CCC43[C@@H]65)C2)C1 (stereo partly shown)
testedTarget: tubulin
recordedMeasurement: B (B=60-100)
--
compound: CC[C@]1(O)C[C@@H]2CN(CCc3c([nH]c4ccccc34)[C@@](C(=O)OC)(c3cc4c(cc3OC)N(C)[C@H]3[C@@](O)(C(=O)NCCOCCOCCOCCn5c(=O)c(C)cn([C@H]6C[C@H](O)[C@@H](CO)O6)c5=O)[C@H](O)[C@]5(CC)C=CCN6CC[C@]43[C@@H]65)C2)C1
testedTarget: tubulin
recordedMeasurement: A (A<60)
--
compound: CC(=O)O[C@H]1C(=O)C2(C)[C@@H](OC(=O)NCCCCCCn3c(=O)c(C)cn([C@H]4CC(O)[C@@H](CO)O4)c3=O)CC3OC[C@]3(OC(C)=O)[C@H]2[C@H](OC(=O)c2ccccc2)[C@]2(O)C[C@H](OC(=O)[C@H](O)[C@@H](NC(=O)c3ccccc3)c3ccccc3)C(C)=C1C2(C)C (stereo partly shown)
testedTarget: tubulin
recordedMeasurement: B (B=60-100)
--
compound: CC(=O)O[C@H]1C(=O)[C@]2(C)[C@@H](OC(=O)NCCCCCCN)C[C@H]3OC[C@@]3(OC(C)=O)[C@H]2[C@H](OC(=O)c2ccccc2)[C@]2(O)C[C@H](OC(=O)[C@H](O)[C@@H](NC(=O)c3ccccc3)c3ccccc3)C(C)=C1C2(C)C
testedTarget: tubulin
recordedMeasurement: A (A<60)
--
compound: CC[C@]1(O)C[C@@H]2CN(CCc3c([nH]c4ccccc34)[C@@](C(=O)OC)(c3cc4c(cc3OC)N(C)[C@H]3[C@@](O)(C(=O)OC)[C@H](O)[C@]5(CC)C=CCN6CC[C@]43[C@@H]65)C2)C1
testedTarget: tubulin
recordedMeasurement: C (C>100)
--
compound: CC(=O)O[C@H]1C(=O)[C@@]2(C)[C@H]([C@H](OC(=O)c3ccccc3)[C@]3(O)C[C@H](OC(=O)[C@H](O)[C@@H](NC(=O)c4ccccc4)c4ccccc4)C(C)=C1C3(C)C)[C@]1(OC(C)=O)CO[C@@H]1C[C@@H]2O
testedTarget: tubulin
recordedMeasurement: C (C>100)

---

- testedTarget: Human thymidine kinase 1 (TK1) (Homo sapiens, UniProt P04183)
- Construct: His tag (from pET28b(+)) (N); made in house; host or cells: E. coli BL21-codon plus
- methodDescription: Thymidine kinase coupled (kinetic) ATP depletion assay
- Assay type: biochemical
- settings: initial velocity relative to thymidine; 100 μM conjugate
quantityMeasured: Ave. TK1 Kinase Act.

molecule: CC(=O)O[C@H]1C(=O)[C@@]2(C)[C@H]([C@H](OC(=O)c3ccccc3)[C@]3(O)C[C@H](OC(=O)[C@H](O)[C@@H](NC(=O)c4ccccc4)c4ccccc4)C(C)=C1C3(C)C)[C@]1(OC(C)=O)CO[C@@H]1C[C@@H]2O [Paclitaxel]
recordedMeasurement: A (A<20)
--
molecule: CC[C@]1(O)C[C@@H]2CN(CCc3c([nH]c4ccccc34)[C@@](C(=O)OC)(c3cc4c(cc3OC)N(C)[C@H]3[C@@](O)(C(=O)NCCOCCn5c(=O)c(C)cn([C@H]6C[C@H](O)[C@@H](CO)O6)c5=O)[C@H](O)[C@]5(CC)C=CCN6CC[C@]43[C@@H]65)C2)C1 [VBL-3Am-PEG(5)-N3-THY]
recordedMeasurement: A (A<20)
--
molecule: CC[C@]1(O)C[C@@H]2CN(CCc3c([nH]c4ccccc34)[C@@](C(=O)OC)(c3cc4c(cc3OC)N(C)[C@H]3[C@@](O)(C(=O)NCCCCCCn5c(=O)c(C)cn([C@H]6C[C@H](O)[C@@H](CO)O6)c5=O)[C@H](O)[C@]5(CC)C=CCN6CC[C@]43[C@@H]65)C2)C1 [VBL-3Am-ALK(6)-N3-THY]
recordedMeasurement: A (A<20)

---

- testedTarget: Human thymidine kinase 1 (TK1) (Homo sapiens, UniProt P04183)
- Construct: His tag (from pET28b(+)) (N); made in house; host or cells: E. coli BL21-codon plus
- Sequence (P04183 1-234): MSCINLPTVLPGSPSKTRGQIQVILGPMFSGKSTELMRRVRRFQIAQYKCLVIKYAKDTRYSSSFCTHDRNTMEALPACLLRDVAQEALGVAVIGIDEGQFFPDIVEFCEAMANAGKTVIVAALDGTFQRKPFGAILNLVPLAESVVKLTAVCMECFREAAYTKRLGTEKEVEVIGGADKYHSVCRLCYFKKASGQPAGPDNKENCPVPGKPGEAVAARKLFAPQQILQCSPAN
- methodDescription: Thymidine kinase coupled (kinetic) ATP depletion assay
- Type: biochemical
- settings: initial velocity relative to thymidine; 100 μM conjugate

molecule: CC(=O)O[C@@]12CO[C@@H]1C[C@H](O)[C@@]1(C)C(=O)[C@H](OC(=O)NCCOCCOCCOCCn3c(=O)c(C)cn([C@@H]4C[C@H](O)[C@@H](CO)O4)c3=O)C3=C(C)[C@@H](OC(=O)[C@H](O)[C@@H](NC(=O)c4ccccc4)c4ccccc4)C[C@@](O)([C@@H](OC(=O)c4ccccc4)[C@H]21)C3(C)C [PXL-10Ca-PEG(11)-N3-αTHY]
Ave. TK1 Kinase Act.: A (A<20)
//
molecule: CC(=O)O[C@@]12CO[C@@H]1C[C@H](O)[C@@]1(C)C(=O)[C@H](OC(=O)NCCCCCCn3c(=O)c(C)cn([C@@H]4C[C@H](O)[C@@H](CO)O4)c3=O)C3=C(C)[C@@H](OC(=O)[C@H](O)[C@@H](NC(=O)c4ccccc4)c4ccccc4)C[C@@](O)([C@@H](OC(=O)c4ccccc4)[C@H]21)C3(C)C [PXL-10Ca-ALK(6)-N3-αTHY]
Ave. TK1 Kinase Act.: A (A<20)
//
molecule: COc1cccc2c1C(=O)c1c(O)c3c(c(O)c1C2=O)C[C@@](O)(C(=O)CO)C[C@@H]3O[C@H]1C[C@H](NCCCN2C(=O)CC(SCCC(=O)NCCOCCOCCOCCn3c(=O)c(C)cn([C@H]4C[C@H](O)[C@@H](CO)O4)c3=O)C2=O)[C@H](O)[C@H](C)O1.O=C(O)C(F)(F)F (stereo partly drawn) [DOX-3′Alk-[MALaPEG](22)-N3-THY]
Ave. TK1 Kinase Act.: A (A<20)

---

- testedTarget: Human thymidine kinase 1 (TK1) (Homo sapiens, UniProt P04183)
- Construct: His tag (from pET28b(+)) (N); made in house; host or cells: E. coli BL21-codon plus
- Sequence (P04183 1-234): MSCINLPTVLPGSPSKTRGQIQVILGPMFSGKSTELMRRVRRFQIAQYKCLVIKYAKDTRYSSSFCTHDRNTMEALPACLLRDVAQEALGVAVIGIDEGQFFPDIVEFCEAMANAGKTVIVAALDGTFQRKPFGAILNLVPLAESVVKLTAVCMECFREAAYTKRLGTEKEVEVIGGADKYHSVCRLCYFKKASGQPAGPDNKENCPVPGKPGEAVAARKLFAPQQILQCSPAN
- methodDescription: Thymidine kinase coupled (kinetic) ATP depletion assay
- Type: biochemical
- settings: initial velocity relative to thymidine; 100 μM conjugate
quantityMeasured: Ave. TK1 Kinase Act.

compound: CC[C@]1(O)C[C@@H]2CN(CCc3c([nH]c4ccccc34)[C@@](C(=O)OC)(c3cc4c(cc3OC)N(C)[C@H]3[C@@](O)(C(=O)NCCCn5c(=O)c(C)cn([C@H]6C[C@H](O)[C@@H](CO)O6)c5=O)[C@H](O)[C@]5(CC)C=CCN6CC[C@]43[C@@H]65)C2)C1
recordedMeasurement: A (A<20)
--
compound: COc1cccc2c1C(=O)c1c(O)c3c(c(O)c1C2=O)C[C@@](O)(C(=O)CO)C[C@@H]3OC1CC(NCCCN2C(=O)CC(SCCC(=O)NCCCCCCn3c(=O)c(C)cn([C@H]4CC(O)[C@@H](CO)O4)c3=O)C2=O)C(O)C(C)O1 (some centres unmarked)
recordedMeasurement: A (A<20)
--
compound: CC(=O)O[C@@]12CO[C@@H]1C[C@H](O)[C@@]1(C)C(=O)[C@H](OC(=O)NCCOCCn3c(=O)c(C)cn([C@@H]4C[C@H](O)[C@@H](CO)O4)c3=O)C3=C(C)[C@@H](OC(=O)[C@H](O)[C@@H](NC(=O)c4ccccc4)c4ccccc4)C[C@@](O)([C@@H](OC(=O)c4ccccc4)[C@H]21)C3(C)C [PXL-10Ca-PEG(5)-N3-αTHY]
recordedMeasurement: A (A<20)
--
compound: CC[C@]1(O)C[C@@H]2CN(CCc3c([nH]c4ccccc34)[C@@](C(=O)OC)(c3cc4c(cc3OC)N(C)[C@H]3[C@@](O)(C(=O)OC)[C@H](OC(C)=O)[C@]5(CC)C=CCN6CC[C@]43[C@@H]65)C2)C1
recordedMeasurement: A (A<20)
--
compound: COc1cccc2c1C(=O)c1c(O)c3c(c(O)c1C2=O)C[C@@](O)(C(=O)CO)C[C@@H]3O[C@H]1C[C@H](N)[C@H](O)[C@H](C)O1
recordedMeasurement: A (A<20)
